# MEASURED ON: Serine/threonine-protein kinase TBK1 (Homo sapiens)
# CONDITION PARAMETERS: at 1 µM
Below, each entry is listed alongside its reported inhibition.
All answers are understood in %, so give the number only.

INSERT INTO assay_data (line_notation, measured_on, measured_result) VALUES
  ('CCS(=O)(=O)c1ccc(OC)c(Nc2nccc(N(C)c3ccc4c(C)n[nH]c4c3)n2)c1', 'Serine/threonine-protein kinase TBK1 (Homo sapiens)', 1),
  ('CCN1CCC(CC(=O)Nc2n[nH]c3nnc(-c4cccc(F)c4F)cc23)CC1', 'Serine/threonine-protein kinase TBK1 (Homo sapiens)', 0),
  ('ON=C1CCc2cc(-c3nc(C4CCNCC4)[nH]c3-c3ccncc3)ccc21', 'Serine/threonine-protein kinase TBK1 (Homo sapiens)', 1),
  ('CS(=O)(=O)CCNCc1coc(-c2ccc3ncnc(Nc4ccc(OCc5ccccc5)cc4)c3c2)c1', 'Serine/threonine-protein kinase TBK1 (Homo sapiens)', -1),
  ('N#Cc1ccc2c(-c3ccnc(NC4CC4)n3)c(-c3ccc(F)cc3)nn2c1', 'Serine/threonine-protein kinase TBK1 (Homo sapiens)', -1);

# inhibition lookup, item CCS(=O)(=O)c1ccc(OC)c(Nc2ncc(-c3cccc(-c4ccccc4F)c3)o2)c1
13

Try the compound O=C1NC(=O)C(N2CCc3ccccc32)=C1c1ccc(Cl)cc1
1

Again, but for N#Cc1cccc(Nc2ncc(-c3ccccc3)o2)c1
4

Next compound up: COC(=O)Nc1nc2ccc(Sc3ccc(NC(=O)Nc4cc(C(F)(F)F)ccc4F)cc3)cc2[nH]1
-3

Let us now turn to COC(=O)Nc1nc2cc(Oc3cccc(NC(=O)Nc4cc(C(F)(F)F)ccc4F)c3)ccc2[nH]1
-2

Try Nc1nonc1-c1nc2cnccc2n1C1CC1 next.
8

Query CCCNc1cccc(-n2ncc3c(N/N=C/c4ccncc4)ncnc32)c1 next
18

Another compound: Fc1ccc(Nc2nccc(-c3c(-c4ccc(C(F)(F)F)cc4)nn4ncccc34)n2)cc1F
-5

Would you mind doing Cc1cc(O)cc(C)c1/C=C/c1cncc(-c2nn[nH]n2)c1 as well?
3

----------
# MEASURED ON: Tyrosine-protein kinase Mer (Homo sapiens)
# CONDITION PARAMETERS: at 10 µM
QUANTITY NAME: inhibition (%)
Give the value, in units of %, as a plain number.

Previously resolved entries follow.
INSERT INTO measurements (line_notation, measured_result) VALUES
  ('CC(C)c1ccc(-c2cc(-c3c[nH]nc3-c3ccccn3)ccn2)cc1', -10),
  ('OCCCNc1nccc(-c2c(-c3ccc(F)cc3)nn3cc(C(F)(F)F)ccc23)n1', 57),
  ('CN1CCN(CCCNc2nc3ccc(Oc4ccc(NC(=O)Nc5cc(C(F)(F)F)ccc5F)cc4)cc3[nH]2)CC1', -1);

Which measured inhibition belongs to Cc1cccc(Nc2ncc(-c3ccccc3)o2)c1 , tested on Tyrosine-protein kinase Mer (Homo sapiens)?
38

Would you kindly repeat that for CCS(=O)(=O)c1ccc(OC)c(Nc2ncc(-c3ccccc3Cl)o2)c1 ?
6

----------
# MEASURED ON: Inhibitor of nuclear factor kappa-B kinase subunit beta (Homo sapiens)
# CONDITION PARAMETERS: at 1 µM
QUANTITY NAME: inhibition (%)
Numbers only here, please. The scale is %.

Example results:
INSERT INTO measurements (line_notation, quantity_name, result_unit, measured_result) VALUES
  ('COc1cccc(-n2ncc3c(N/N=C/c4ccncc4)ncnc32)c1', 'inhibition', '%', -2),
  ('NC(=O)c1ccc(Oc2nccc(-c3c(-c4ccc(F)cc4)ncn3C3CCNCC3)n2)cc1', 'inhibition', '%', 0),
  ('Nc1nc(-c2ccc3c(c2)C(=Cc2cc(Br)c(O)c(Br)c2)C(=O)N3)cs1', 'inhibition', '%', -8),
  ('CS(=O)(=O)Nc1cccc(-c2ccc3c(NC(=O)C4CC4)n[nH]c3c2)c1', 'inhibition', '%', -6),
  ('NS(=O)(=O)c1ccc(N/N=C2\C(=O)Nc3cccc(CCc4ccncc4)c32)cc1', 'inhibition', '%', -7);

Turning now to a further record.
For the molecule shown here, N#Cc1c(NC(=O)c2ccc(F)cc2)sc2c1CCCC2 , give the reported inhibition.
-2

meta.source: ChEMBL document CHEMBL2007661
